test system: PfAP2-LT AP2 domain (GST-tagged); test: gcPBM binding intensity (ln(normalized median fluorescence intensity)); higher = stronger DNA binding
In all, about 25,000 sequences were measured (“ln(normalized median fluorescence intensity)”: median about 8.9, highest 2% from about 10 on). The sample as a whole holds a higher share of the highest values than the screen did.
Please enter Condition met where gcPBM binding intensity (ln) is greater than or equal to 10, and Condition not met where it is lower.

{"sequence entry": "TATATATATATATTATGTACTCATTTATTATCTTTT [XGTACX_site8051]", "qualitative label": "Condition not met"}
{"sequence entry": "TATATATATATACCAACACACATACATATATATATA [CACACA_site8530]", "qualitative label": "Condition not met"}
{"sequence entry": "AAATATATTATAAATTGTACGTTTATATATATTATT [XGTACX_site5110]", "qualitative label": "Condition not met"}
{"sequence entry": "AAAAAAATTTGGCATACACACACACCCCCACCCACA [CACACA_site8094]", "qualitative label": "Condition met"}
{"sequence entry": "ATAATGAAAAGGAACATACACACCCCATATAAATAT [CACACA_site3442]", "qualitative label": "Condition not met"}
{"sequence entry": "AGCAGACACCAACACACACACATATATATATATATA [CACACA_site337]", "qualitative label": "Condition met"}
{"sequence entry": "ATATATATTTATATATGTACATATTTTTGTGTATTT [XGTACX_site1183]", "qualitative label": "Condition not met"}
{"sequence entry": "AAAAAAACATAAAATACACACAACCTTAAGAATGTA [CACACA_site3293]", "qualitative label": "Condition not met"}

* * *

test system: PfAP2-LT AP2 domain (GST-tagged); assay: gcPBM binding intensity (ln(normalized median fluorescence intensity)); higher = stronger DNA binding
In all, about 25,000 sequences were measured (“ln(normalized median fluorescence intensity)”: median about 8.9, highest 2% from about 10 on). What follows is part of a selection rich in the highest values, with near analogues and random picks from the rest.
Known gcPBM binding intensity (ln) of a selection of sequences

{"sequence entry": "TTATTTACAACTTCAAATTATGTGTAATACTACTAT [CACACA_negctrl_site741]", "gcPBM binding intensity (ln)": 8.73}
{"sequence entry": "TATAATCATATACACGCATGTATAAAATTTAATACT [TGCATGCA_site700]", "gcPBM binding intensity (ln)": 8.96}
{"sequence entry": "TAAACAAATAAATAAACACACAATATATGTATATAT [CACACA_site3803]", "gcPBM binding intensity (ln)": 9.05}
{"sequence entry": "TAACTTTGAAAAGATGGTACACAATAATATATATAT [XGTACX_site8667]", "gcPBM binding intensity (ln)": 8.83}

* * *

system: PfAP2-LT AP2 domain (GST-tagged); experiment: gcPBM binding intensity (ln(normalized median fluorescence intensity)); higher = stronger DNA binding
Over roughly 25,000 sequences, “ln(normalized median fluorescence intensity)” has its median near 8.9; the highest 2% begin near 10. Many of the other results were omitted from the sample, so the highest values are more common in it than they were.

{"sequence entry": "TATGCTACATTATATGTACACACATATACATATATA [CACACA_site8199]", "gcPBM binding intensity (ln)": 9.11}
{"sequence entry": "ACCATATAAATAAACACACACACACCGATATATATA [CACACA_site5310]", "gcPBM binding intensity (ln)": 10.1}
{"sequence entry": "AAATAATTCAAAAAAACACACAAATTACAAAATAAA [CACACA_site269]", "gcPBM binding intensity (ln)": 8.92}
{"sequence entry": "TATATATATAAATACACACACACACCGATATATATA [CACACA_site5408]", "gcPBM binding intensity (ln)": 9.97}
{"sequence entry": "CATATAAAAATGTGCACACACACACCGATATATATT [CACACA_site4940]", "gcPBM binding intensity (ln)": 9.95}
{"sequence entry": "CCTCCCATTTTTACACGTACACATTTAAAATAGACT [XGTACX_site5640]", "gcPBM binding intensity (ln)": 8.95}
{"sequence entry": "ATATTTATATATATCATACACACTAATATGTATATT [CACACA_site3409]", "gcPBM binding intensity (ln)": 8.95}
{"sequence entry": "CACTAAAATGGACACACACACACACCGATATATATA [CACACA_site6139]", "gcPBM binding intensity (ln)": 10.1}
{"sequence entry": "AATAAATAAATACATCTCAGTATATAAACAAACAAA [CACACA_negctrl_site1604]", "gcPBM binding intensity (ln)": 8.89}
{"sequence entry": "CCTAAATAAATGGACACACACATATATATATATATA [CACACA_site1439]", "gcPBM binding intensity (ln)": 9.85}
{"sequence entry": "AAAATACATAAACACACACACACACCGATATATATA [CACACA_site9186]", "gcPBM binding intensity (ln)": 10.4}
{"sequence entry": "GTGTAAATATAATTAGTTTCACAAAACAAATATTTA [CACACA_negctrl_site717]", "gcPBM binding intensity (ln)": 8.61}
